# TARGET DESC: Protein kinase C alpha type (Homo sapiens);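 note: reported value is the mean inhibition, measured within the GSK PKIS screening panel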
# DETAILS: at 1 µM
READOUT TYPE: inhibition

>>> result("CS(=O)(=O)CCNCc1ccc(-c2ccc3ncnc(Nc4ccc(OCc5ccccc5)cc4)c3c2)o1")
"1.49%"
>>> result("CN1CCC(n2cnc(-c3ccc(F)cc3)c2-c2ccnc(NCCO)n2)CC1")
"6.57%"
>>> result("CC(C)c1ccc(-c2cc(-c3c[nH]nc3-c3ccccn3)ccn2)cc1")
"1.23%"
>>> result("O=C1Nc2ccccc2/C1=C1\\CCc2cc(O)ccc21")
"2.87%"

* * *

# TARGET DESC: Casein kinase I isoform gamma-1 (Homo sapiens) (UniProt Q9HCP0);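 note: reported as mean inhibition, part of GSK PKIS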
# Sequence (Q9HCP0 whole entry, looked up, canonical isoform): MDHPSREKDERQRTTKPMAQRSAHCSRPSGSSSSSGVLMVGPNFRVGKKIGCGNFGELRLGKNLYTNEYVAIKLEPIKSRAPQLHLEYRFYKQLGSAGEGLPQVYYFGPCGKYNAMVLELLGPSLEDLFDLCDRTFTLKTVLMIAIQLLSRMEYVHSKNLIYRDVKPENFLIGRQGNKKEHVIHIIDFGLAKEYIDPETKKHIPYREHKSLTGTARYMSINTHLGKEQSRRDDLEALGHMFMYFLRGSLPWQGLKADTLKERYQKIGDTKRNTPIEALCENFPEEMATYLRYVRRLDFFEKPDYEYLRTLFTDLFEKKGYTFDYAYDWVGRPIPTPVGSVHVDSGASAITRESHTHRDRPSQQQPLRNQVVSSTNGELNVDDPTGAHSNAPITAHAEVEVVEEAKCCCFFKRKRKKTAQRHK
# DETAILS: at 0.1 µM
Here the recorded inhibition is given for each entry.
READOUT TYPE: inhibition (%)

>>> result("Fc1cccc(COc2ccc(Nc3ncncc3C#Cc3ccccc3)cc2Cl)c1")
4.27
>>> result("CC1=C(C(=O)Nc2ccc3[nH]ncc3c2)C(c2ccc(F)cc2)N=C(c2ccc(C(F)(F)F)nc2)N1 (stereo not drawn)")
3.19
>>> result("COc1cc(N2CCN(C(C)C)CC2)ccc1Nc1nc(Nc2cccc3ncccc23)c2cc[nH]c2n1")
-1.03
